TESTED ON: Norovirus polymerase (NoVpol, genotype II) (Lordsdale virus, UniProt P54634)
Sequence (P54634 1190-1699 limits assumed): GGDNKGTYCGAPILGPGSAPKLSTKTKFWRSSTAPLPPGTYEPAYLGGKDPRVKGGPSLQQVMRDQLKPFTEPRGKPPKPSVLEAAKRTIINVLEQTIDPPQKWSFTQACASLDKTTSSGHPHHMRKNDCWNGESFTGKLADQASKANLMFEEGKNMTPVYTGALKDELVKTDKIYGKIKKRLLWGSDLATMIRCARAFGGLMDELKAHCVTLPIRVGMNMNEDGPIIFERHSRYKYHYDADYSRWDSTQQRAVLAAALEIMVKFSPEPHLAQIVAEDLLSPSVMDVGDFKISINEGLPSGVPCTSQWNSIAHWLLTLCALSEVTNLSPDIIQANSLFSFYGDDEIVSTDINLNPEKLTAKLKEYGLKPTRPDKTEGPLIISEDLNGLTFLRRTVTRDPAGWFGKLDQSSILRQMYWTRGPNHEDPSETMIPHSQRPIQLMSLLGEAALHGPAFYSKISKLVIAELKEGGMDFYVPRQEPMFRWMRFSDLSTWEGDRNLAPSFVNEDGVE
PROCEDURE SUMMARY: biochemical
REPORTED CONDITIONS: 50 nM recombinant enzyme, 2.5 hours at 30° C.; read-out: IC50
pIC50: −log10 of the molar value.
MEASURED QUANTITY: pIC50

# COMPOUND, MEASURED QUANTITY, RESULT
rows = [
    ("[N-]=[N+]=N[C@]1(COP(=O)(O)OP(=O)(O)OP(=O)(O)O)O[C@@H](n2cnc3c(=O)[nH]c(N)nc32)[C@H](F)[C@@H]1O [Compound 269a]", "pIC50", "> 6.00"),
    ("C#C[C@]1(O)[C@H](n2cnc3c(=O)[nH]c(N)nc32)O[C@](F)(CO)[C@H]1F [Compound 146a]", "pIC50", "> 6.00"),
    ("C[C@]1(Cl)[C@H](n2ccc(=O)[nH]c2=O)O[C@](F)(COP(=O)(O)OP(=O)(O)OP(=O)(O)O)[C@H]1O [Compound 239a]", "pIC50", "5.00 to 6.00"),
    ("O=c1ccn([C@@H]2O[C@](CF)(COP(=O)(O)OP(=O)(O)OP(=O)(O)O)[C@@H](O)[C@H]2F)c(=O)[nH]1 [Compound 111a]", "pIC50", "> 6.00"),
    ("C#C[C@]1(F)[C@H](n2ccc(=O)[nH]c2=O)O[C@](F)(COP(=O)(O)OP(=O)(O)OP(=O)(O)O)[C@H]1O [Compound 313a]", "pIC50", "5.00 to 6.00"),
    ("C[C@@]1(Cl)[C@H](O)[C@@H](COP(=O)(O)OP(=O)(O)OP(=O)(O)O)O[C@H]1n1ccc(N)nc1=O [Compound 262a]", "pIC50", "5.00 to 6.00"),
]
